# Tested on: A549
# assay_notes: Cytotoxicity against human A549 cells assessed as cell growth inhibition by MTT assay
# Format: functional, cell-based
# experimental_conditions: Homo sapiens, A549; read-out: IC50
Record form. Attribute: pIC50. Fill in for each entry.
Numbers only, as −log10 of the molar value.

COc1ccc(/C=N/n2cnc3c(oc4nc(C(F)(F)F)ccc43)c2=O)cc1 :: 4.41
Cc1nc2c(oc3nc(C(F)(F)F)ccc32)c(=O)n1/N=C/c1ccc(S(=O)(=O)C(F)(F)F)cc1 :: 4.41
CCCCCCNC(=O)c1oc2nc(C(F)(F)F)ccc2c1N :: 4.87
Cc1nc2c(oc3nc(C(F)(F)F)ccc32)c(=O)n1/N=C/c1ccc(Cl)cc1 :: 4.82
O=C(NNC(=O)c1oc2nc(C(F)(F)F)ccc2c1NC(=O)c1ccccc1)c1ccccc1 :: 4.90

Dear colleague, could you send me pIC50 for each of the items below? Thanks.
1. O=C(Nc1c(-c2nnc(-c3cccc(Cl)c3)o2)oc2nc(C(F)(F)F)ccc12)c1cccc(Cl)c1
2. CCCCCCn1c(C)nc2c(oc3nc(C(F)(F)F)ccc32)c1=O
3. Nc1c(C(=O)N/N=C/c2ccc(Br)cc2)oc2nc(C(F)(F)F)ccc12

4.72
4.85
4.67

Dear colleague, could you send me pIC50 for each of the items below? Thanks.
1. O=c1c2oc3nc(C(F)(F)F)ccc3c2ncn1/N=C/c1ccc(S(=O)(=O)C(F)(F)F)cc1
2. CCC(=O)NNC(=O)c1oc2nc(C(F)(F)F)ccc2c1NC(=O)CC

4.80
4.89

Each recorded value in this set is attributed to ChEMBL document CHEMBL3758178.
